Listed below: SETFA POST percentage damage (five point scale) values for each entry.
# Test system: Setaria faberi (SETFA)
# Assay explanation: Post-emergence herbicidal glasshouse test, percentage damage
# Assay type: in vivo
# Experimental context: 250 g/h, evaluated after 13 days
Measured attribute: SETFA POST percentage damage (five point scale)

- Compound: "CC#Cc1cc(C)c(C2=C(OC(=O)OC)CC3(CCN(C(=O)C4COC4)CC3)CC2=O)c(C)c1"
  Result: "5 (5=80-100%)"
- Compound: "CC#Cc1cc(C)c(C2C(=O)CC3(CCN(S(=O)(=O)c4ccccc4F)CC3)CC2=O)c(C)c1"
  Result: "5 (5=80-100%)"
- Compound: "CC#Cc1cc(C)c(C2=C(OC(=O)C(C)(C)C)CC3(CCN(C(=O)N(C)C(=O)C(C)(C)C)CC3)CC2=O)c(C)c1"
  Result: "5 (5=80-100%)"
- Compound: "CC#Cc1cc(C)c(C2C(=O)CC3(CCN(C(=O)c4cccc(C(F)(F)F)n4)CC3)CC2=O)c(C)c1"
  Result: "5 (5=80-100%)"
- Compound: "CC#Cc1cc(C)c(C2C(=O)CC3(CCN(C(=O)C4CCCO4)CC3)CC2=O)c(C)c1 (stereo not drawn)"
  Result: "5 (5=80-100%)"
- Compound: "CC#Cc1cc(C)c(C2C(=O)CC3(CCN(C(=O)Cc4cccnc4)CC3)CC2=O)c(C)c1"
  Result: "5 (5=80-100%)"
- Compound: "CC#Cc1cc(C)c(C2C(=O)CC3(CCN(S(=O)(=O)c4cnccn4)CC3)CC2=O)c(C)c1"
  Result: "5 (5=80-100%)"
- Compound: "CC#Cc1cc(C)c(C2C(=O)CC3(CCN(C(=O)c4cc(C(F)(F)F)ccn4)CC3)CC2=O)c(C)c1"
  Result: "5 (5=80-100%)"
- Compound: "CC#Cc1cc(C)c(C2C(=O)CC3(CCN(C(=O)Nc4ncccc4C)CC3)CC2=O)c(C)c1"
  Result: "5 (5=80-100%)"
- Compound: "CC#Cc1cc(C)c(C2=C(OC(=O)OC)CC3(CCN(C(=O)NC(=O)c4ccccn4)CC3)CC2=O)c(C)c1"
  Result: "5 (5=80-100%)"
- Compound: "CC#Cc1cc(C)c(C2C(=O)CC3(CCN(C(=O)c4ccnc(F)c4)CC3)CC2=O)c(C)c1"
  Result: "5 (5=80-100%)"
- Compound: "CC#Cc1cc(C)c(C2C(=O)CC3(CCN(C(=O)c4ccc(C#N)cn4)CC3)CC2=O)c(C)c1"
  Result: "5 (5=80-100%)"
- Compound: "CC#Cc1cc(C)c(C2C(=O)CC3(CCN(C(=O)Cc4cnc[nH]4)CC3)CC2=O)c(C)c1"
  Result: "5 (5=80-100%)"
- Compound: "CC#Cc1cc(C)c(C2C(=O)CC3(CCN(C(=O)Cc4csc(C(F)F)n4)CC3)CC2=O)c(C)c1"
  Result: "5 (5=80-100%)"
- Compound: "CC#Cc1cc(C)c(C2=C(OS(=O)(=O)c3ccccn3)CC3(CCN(S(=O)(=O)c4ccccn4)CC3)CC2=O)c(C)c1"
  Result: "5 (5=80-100%)"
